test: Pharmacokinetic analysis, plasma and brain; type: in vivo, ICR (CD-1) male mice; conditions: male, ICR (CD-1), mouse, brain, iv, 1 mg/Kg, i.v., Time 8 h, individual animals; read-out: B/P, Brian/Plasma
Parameter: Kp at 8 h

1. Clc1ccc2c(c1)OCC(c1ccc(-c3ccccc3)cc1)=N2 [CA39]: 11.7

----------
tested on: NIH3T3 cells stably expressing the mCherry-GFP-LC3 reporter; assay: Macroautophagy activity, mCherry-GFP-LC3 reporter; format: cell-based, mouse; conditions: c0 = 20 (axis unlabelled)
Parameter: APG (Fig. S3e)

1. Cc1ccc(C2=Nc3ccc(Cl)cc3OC2)cc1 [AR7, reference compound]: 0.9029
2. CC(=O)Nc1ccc(C2=Nc3ccc(Cl)cc3OC2)cc1: 2.044
3. Clc1ccc2c(c1)OCC(c1ccc(-c3ccccc3)cc1)=N2: 2.614
4. CO[C@H]1C[C@@H]2CC[C@@H](C)[C@@](O)(O2)C(=O)C(=O)N2CCCC[C@H]2C(=O)O[C@H]([C@H](C)C[C@@H]2CC[C@@H](O)[C@H](OC)C2)CC(=O)[C@H](C)/C=C(\C)[C@@H](O)[C@@H](OC)C(=O)[C@H](C)C[C@H](C)/C=C/C=C/C=C/1C [rapamycin, reference compound]: 5.184

----------
test: Pharmacokinetic analysis, plasma and brain; format: in vivo, ICR (CD-1) male mice; details: male, ICR (CD-1), mouse, brain, po, 30 mg/Kg, P.O., Time 24 h, mean; read-out: B/P, Brian/Plasma, Mean
Parameter: Kp at 24 h

1. Clc1ccc2c(c1)OCC(c1ccc(-c3ccccc3)cc1)=N2: 17.9

----------
experiment: Pharmacokinetic analysis, plasma and brain; assay type: in vivo, ICR (CD-1) male mice; conditions: male, ICR (CD-1), mouse, brain, po, 30 mg/Kg, P.O., Time 2 h, mean; read-out: B/P, Brian/Plasma, Mean
Overview of recorded Kp at 2 h for various molecules
Parameter: Kp at 2 h

1) Clc1ccc2c(c1)OCC(c1ccc(-c3ccccc3)cc1)=N2 [CA39]: 7.48
2) CC(=O)Nc1ccc(C2=Nc3ccc(Cl)cc3OC2)cc1 [CA77]: 106

----------
assay: Pharmacokinetic analysis, plasma and brain; format: in vivo, ICR (CD-1) male mice; conditions: male, ICR (CD-1), mouse, brain, iv, 1 mg/Kg, i.v., Time 0.25 h, mean; read-out: B/P, Brian/Plasma, Mean
Parameter: Kp at 0.25 h

1) Clc1ccc2c(c1)OCC(c1ccc(-c3ccccc3)cc1)=N2 [CA39]: 1.9
2) CC(=O)Nc1ccc(C2=Nc3ccc(Cl)cc3OC2)cc1 [CA77]: 122

----------
experiment: Pharmacokinetic analysis, plasma and brain; type: in vivo, ICR (CD-1) male mice; settings: male, ICR (CD-1), mouse, brain, po, 30 mg/Kg, P.O., Time 0.5 h, mean; read-out: B/P, Brian/Plasma, Mean
Parameter: Kp at 0.5 h

1) Clc1ccc2c(c1)OCC(c1ccc(-c3ccccc3)cc1)=N2: 1.72
2) CC(=O)Nc1ccc(C2=Nc3ccc(Cl)cc3OC2)cc1: 123

----------
experiment: Pharmacokinetic analysis, plasma and brain; format: in vivo, ICR (CD-1) male mice; conditions: male, ICR (CD-1), mouse, brain, po, 30 mg/Kg, P.O., Time 1 h, individual animals; read-out: B/P, Brian/Plasma
Parameter: Kp at 1 h

1. CC(=O)Nc1ccc(C2=Nc3ccc(Cl)cc3OC2)cc1: 125
2. Clc1ccc2c(c1)OCC(c1ccc(-c3ccccc3)cc1)=N2: 5.37

----------
Overview of recorded half-life for various compounds
test: Pharmacokinetic analysis, plasma and brain; format: in vivo, ICR (CD-1) male mice; conditions: male, ICR (CD-1), mouse, brain; mice; IV 1 mg/kg; read-out: Half-life in brain (converted)
Parameter: half-life (h)

1. CC(=O)Nc1ccc(C2=Nc3ccc(Cl)cc3OC2)cc1: 1.8
2. Clc1ccc2c(c1)OCC(c1ccc(-c3ccccc3)cc1)=N2: 8

----------
assay: Pharmacokinetic analysis, plasma and brain; assay type: in vivo, ICR (CD-1) male mice; conditions: male, ICR (CD-1), mouse, brain, iv, 1 mg/Kg, i.v., Time 24 h, individual animals; read-out: B/P, Brian/Plasma
Parameter: Kp at 24 h

1. Clc1ccc2c(c1)OCC(c1ccc(-c3ccccc3)cc1)=N2: 14.7

----------
test system: NIH3T3 cells stably expressing the mCherry-GFP-LC3 reporter; experiment: Macroautophagy activity, mCherry-GFP-LC3 reporter; type: cell-based, mouse; conditions: c0 = 30 (axis unlabelled)
Parameter: AV (Fig. S3e)

1) Clc1ccc2c(c1)OCC(c1ccc(-c3ccccc3)cc1)=N2: 3.975
2) CO[C@H]1C[C@@H]2CC[C@@H](C)[C@@](O)(O2)C(=O)C(=O)N2CCCC[C@H]2C(=O)O[C@H]([C@H](C)C[C@@H]2CC[C@@H](O)[C@H](OC)C2)CC(=O)[C@H](C)/C=C(\C)[C@@H](O)[C@@H](OC)C(=O)[C@H](C)C[C@H](C)/C=C/C=C/C=C/1C [rapamycin, reference compound]: 16.3229
3) CC(=O)Nc1ccc(C2=Nc3ccc(Cl)cc3OC2)cc1: 6.473
4) Cc1ccc(C2=Nc3ccc(Cl)cc3OC2)cc1 [AR7, reference compound]: 3.825

----------
experiment: Pharmacokinetic analysis, plasma and brain; format: in vivo, ICR (CD-1) male mice; details: male, ICR (CD-1), mouse, brain, iv, 1 mg/Kg, i.v., Time 2 h, mean; read-out: B/P, Brian/Plasma, Mean
Parameter: Kp at 2 h

1) Clc1ccc2c(c1)OCC(c1ccc(-c3ccccc3)cc1)=N2: 4.81
2) CC(=O)Nc1ccc(C2=Nc3ccc(Cl)cc3OC2)cc1: 183

----------
Overview of recorded Kp at 0.25 h for various compounds
assay: Pharmacokinetic analysis, plasma and brain; format: in vivo, ICR (CD-1) male mice; conditions: male, ICR (CD-1), mouse, brain, po, 30 mg/Kg, P.O., Time 0.25 h, mean; read-out: B/P, Brian/Plasma, Mean
Parameter: Kp at 0.25 h

1. CC(=O)Nc1ccc(C2=Nc3ccc(Cl)cc3OC2)cc1: 66.9
2. Clc1ccc2c(c1)OCC(c1ccc(-c3ccccc3)cc1)=N2: 4.31

----------
experiment: Pharmacokinetic analysis, plasma and brain; assay type: in vivo, ICR (CD-1) male mice; conditions: male, ICR (CD-1), mouse, brain; mice; PO 30 mg/kg; read-out: Half-life in brain (converted)
Parameter: half-life (h)

1. CC(=O)Nc1ccc(C2=Nc3ccc(Cl)cc3OC2)cc1 [CA77]: 4.2
2. Clc1ccc2c(c1)OCC(c1ccc(-c3ccccc3)cc1)=N2 [CA39]: 10

----------
assay: Pharmacokinetic analysis, plasma and brain; type: in vivo, ICR (CD-1) male mice; settings: male, ICR (CD-1), mouse, brain, iv, 1 mg/Kg, i.v., Time 4 h, mean; read-out: B/P, Brian/Plasma, Mean
Parameter: Kp at 4 h

1. Clc1ccc2c(c1)OCC(c1ccc(-c3ccccc3)cc1)=N2 [CA39]: 13.3
2. CC(=O)Nc1ccc(C2=Nc3ccc(Cl)cc3OC2)cc1 [CA77]: 210

----------
Overview of recorded Kp at 0.083 h for various molecules
assay: Pharmacokinetic analysis, plasma and brain; format: in vivo, ICR (CD-1) male mice; conditions: male, ICR (CD-1), mouse, brain, iv, 1 mg/Kg, i.v., Time 0.083 h, mean; read-out: B/P, Brian/Plasma, Mean
Parameter: Kp at 0.083 h

1) Clc1ccc2c(c1)OCC(c1ccc(-c3ccccc3)cc1)=N2: 1.42
2) CC(=O)Nc1ccc(C2=Nc3ccc(Cl)cc3OC2)cc1: 71.2

----------
test: Pharmacokinetic analysis, plasma and brain; format: in vivo, ICR (CD-1) male mice; settings: male, ICR (CD-1), mouse, brain, iv, 1 mg/Kg, i.v., Time 1 h, individual animals; read-out: B/P, Brian/Plasma
Overview of recorded Kp at 1 h for various molecules
Parameter: Kp at 1 h

1. CC(=O)Nc1ccc(C2=Nc3ccc(Cl)cc3OC2)cc1: 178
2. Clc1ccc2c(c1)OCC(c1ccc(-c3ccccc3)cc1)=N2: 4.58

----------
Assay: Pharmacokinetic analysis, plasma and brain
Assay type: in vivo, ICR (CD-1) male mice
Conditions: male, ICR (CD-1), mouse, brain, iv, 1 mg/Kg, i.v., Time 1 h, mean; read-out: B/P, Brian/Plasma, Mean
Procedure: ICR (CD-1) male mice were fasted at least three hours and water was available ad libitum before the study. Animals were housed in a controlled environment, target conditions: temperature 18 to 29 °C, relative humidity 30 to 70%. Temperature and relative humidity was monitored daily. […] Mice were sacrificed, and brain samples were harvested at […], 0.25 h, 0.5 h, 1 h, 2 h, 4 h, 8 h, 24 h, and analyzed for CA39 or CA77 levels using LC-MS/MS. […]
Overview of recorded Kp at 1 h for various compounds
Parameter: Kp at 1 h

1. CC(=O)Nc1ccc(C2=Nc3ccc(Cl)cc3OC2)cc1: 159
2. Clc1ccc2c(c1)OCC(c1ccc(-c3ccccc3)cc1)=N2: 4.11
